System: E. coli MP-4
Assay: MIC determination by CLSI broth dilution, E. coli MP-4
Format: cell-based
Conditions: Escherichia coli, MP4, CLSI broth dilution; strain MP-4
measured_endpoint: MIC

Answered cases to consult:
- substance_smiles: "CCCCCCCN1CCC(C[C@H]2COC(=O)C(C)(C)C(=O)[C@H](C)[C@@H](O[C@@H]3O[C@H](C)C[C@H](N(C)C)[C@H]3O)[C@](C)(OC)C[C@@H](C)CN2C)CC1"
  measured_endpoint: "MIC"
  recorded_result: "< 4 µg/mL"
- substance_smiles: "CO[C@]1(C)C[C@@H](C)CN(C)[C@H](C[C@H]2C[C@H](N(C)C)C2)COC(=O)C(C)(C)C(=O)[C@H](C)[C@H]1O[C@@H]1O[C@H](C)C[C@H](N(C)C)[C@H]1O"
  measured_endpoint: "MIC"
  recorded_result: "< 4 µg/mL"
- substance_smiles: "CO[C@]1(C)C[C@@H](C)CN(C)[C@@H](CC2CCN(C3CC3)CC2)COC(=O)C(C)(C)C(=O)[C@H](C)[C@H]1O[C@@H]1O[C@H](C)C[C@H](N(C)C)[C@H]1O"
  measured_endpoint: "MIC"
  recorded_result: "4 to 32 µg/mL"
- substance_smiles: "CO[C@]1(C)C[C@@H](C)CN(C)[C@H](CCCN2CCC(F)CC2)COC(=O)C(C)(C)C(=O)[C@H](C)[C@H]1O[C@@H]1O[C@H](C)C[C@H](N(C)C)[C@H]1O"
  measured_endpoint: "MIC"
  recorded_result: "< 4 µg/mL"
- substance_smiles: "CO[C@]1(C)C[C@@H](C)CN(C)[C@@H](CCCN2CC[C@H](F)C2)COC(=O)C(C)(C)C(=O)[C@H](C)[C@H]1O[C@@H]1O[C@H](C)C[C@H](N(C)C)[C@H]1O"
  measured_endpoint: "MIC"
  recorded_result: "< 4 µg/mL"
- substance_smiles: "CCCN1CCC(C[C@H]2COC(=O)C(C)(C)C(=O)[C@H](C)[C@@H](O[C@@H]3O[C@H](C)C[C@H](N(C)C)[C@H]3O)[C@](C)(OC)C[C@@H](C)CN2C)CC1"
  measured_endpoint: "MIC"
  recorded_result: "4 to 32 µg/mL"
- substance_smiles: "CO[C@]1(C)C[C@@H](C)CN(C)[C@@H](CCCN2CCC(F)(F)CC2)COC(=O)C(C)(C)C(=O)[C@H](C)[C@H]1O[C@@H]1O[C@H](C)C[C@H](N(C)C)[C@H]1O"
  measured_endpoint: "MIC"
  recorded_result: "< 4 µg/mL"
- substance_smiles: "CO[C@]1(C)C[C@@H](C)CN(C)[C@H](CCCN2CCCCC2)COC(=O)C(C)(C)C(=O)[C@H](C)[C@H]1O[C@@H]1O[C@H](C)C[C@H](N(C)C)[C@H]1O"
  measured_endpoint: "MIC"
  recorded_result: "< 4 µg/mL"
- substance_smiles: "CCCN1C[C@H](C)C[C@@](C)(OC)[C@H](O[C@@H]2O[C@H](C)C[C@H](N(C)C)[C@H]2O)[C@@H](C)C(=O)C(C)(C)C(=O)OC[C@H]1CCCN1CCc2ncncc2C1"
  measured_endpoint: "MIC"
  recorded_result: "< 4 µg/mL"

// next item, MIC requested
Query: State the recorded MIC for this entry: CO[C@]1(C)C[C@@H](C)CN(C)[C@@H](CC2CCN(CC[C@@H](C)CCC=C(C)C)CC2)COC(=O)C(C)(C)C(=O)[C@H](C)[C@H]1O[C@@H]1O[C@H](C)C[C@H](N(C)C)[C@H]1O
Response: 4 to 32 µg/mL
